# Lookup of reported viability, T/C keyed by entry
- Test system: 699152-130-R-J1-PDC complex spheroid viability
- protocol description: Anticancer human tumor 699152-130-R-J1-PDC patient-derived pancreatic carcinoma cell line growth inhibition [POLQ]
- condition info: second compound 0.316 µM; first compound 1 µM; active compounds read low
Please respond with the number in % and leave the unit unwritten.

1. O=C(c1cc(Cc2n[nH]c(=O)c3ccccc23)ccc1F)N1CCN(C(=O)C2CC2)CC1 + Nc1ccc(C#CCN(C(=O)Cc2ncc(C(F)(F)F)cc2C(F)(F)F)c2ccc(F)cc2)nn1    92.8

Specify reported viability, T/C for the molecule shown: O=C(c1cc(Cc2n[nH]c(=O)c3ccccc23)ccc1F)N1CCN(C(=O)C2CC2)CC1 + COC1C(OC(N)=O)C(O)C(Oc2ccc3c(O)c(NC(=O)c4ccc(O)c(CC=C(C)C)c4)c(=O)oc3c2C)OC1(C)C
36.5

Specify reported viability, T/C for the molecule shown: CC1COCCN1c1cc(C2(O)CC3CCC(C2)O3)c2cnn(-c3ccn[nH]3)c2n1 (stereo unspecified) + Nc1ccc(C#CCN(C(=O)Cc2ncc(C(F)(F)F)cc2C(F)(F)F)c2ccc(F)cc2)nn1
53.6

Specify reported viability, T/C for the molecule shown: COc1cc(C2c3cc4c(cc3C(OC3OC5COC(C)OC5C(O)C3O)C3COC(=O)C23)OCO4)cc(OC)c1O (stereo unspecified) + Cc1cccc(N(C)C(=O)C2C(O)CCN2c2nc(C)cc(C(F)(F)F)c2C#N)c1
74.2

Specify reported viability, T/C for the molecule shown: O=c1[nH]cc(F)c(=O)[nH]1 + COC1C(OC(N)=O)C(O)C(Oc2ccc3c(O)c(NC(=O)c4ccc(O)c(CC=C(C)C)c4)c(=O)oc3c2C)OC1(C)C
95.4

Specify reported viability, T/C for the molecule shown: O=c1[nH]cc(F)c(=O)[nH]1 + Nc1ccc(C#CCN(C(=O)Cc2ncc(C(F)(F)F)cc2C(F)(F)F)c2ccc(F)cc2)nn1
102

====

- Test system: 699152-130-R-J1-PDC complex spheroid viability
- protocol description: Anticancer human tumor 699152-130-R-J1-PDC cell line growth inhibition [POLQ];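 further: spheroids exposed to agents for 7 days before viability reading; percent of DMSO vehicle control viability so 100% = vehicle and 0% = no viable signal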
- condition info: second compound 0.1 µM; first compound 0.316 µM; active compounds read low
parameter: viability, T/C (%)
Please respond with the number in % and leave the unit unwritten.

# count of solved cases: 3
1. COc1cccc2c1C(=O)c1c(O)c3c(c(O)c1C2=O)CC(O)(C(=O)CO)CC3OC1CC(N)C(O)C(C)O1 (stereo unspecified) + Nc1ccc(C#CCN(C(=O)Cc2ncc(C(F)(F)F)cc2C(F)(F)F)c2ccc(F)cc2)nn1    51.9
2. CC1COCCN1c1cc(C2(S(C)(=N)=O)CC2)nc(-c2ccnc3[nH]ccc23)n1 (stereo unspecified) + Nc1ccc(C#CCN(C(=O)Cc2ncc(C(F)(F)F)cc2C(F)(F)F)c2ccc(F)cc2)nn1    96.6
3. CC1COCCN1c1cc(C2(O)CC3CCC(C2)O3)c2cnn(-c3ccn[nH]3)c2n1 (stereo unspecified) + Nc1ccc(C#CCN(C(=O)Cc2ncc(C(F)(F)F)cc2C(F)(F)F)c2ccc(F)cc2)nn1    68.1

Specify reported viability, T/C for the molecule shown: O=c1[nH]cc(F)c(=O)[nH]1 + COC1C(OC(N)=O)C(O)C(Oc2ccc3c(O)c(NC(=O)c4ccc(O)c(CC=C(C)C)c4)c(=O)oc3c2C)OC1(C)C
88.5

Specify reported viability, T/C for the molecule shown: CC1COCCN1c1cc(-c2ccnn2C)c2ccnc(-c3ccn[nH]3)c2n1 (stereo unspecified) + COC1C(OC(N)=O)C(O)C(Oc2ccc3c(O)c(NC(=O)c4ccc(O)c(CC=C(C)C)c4)c(=O)oc3c2C)OC1(C)C
71.1

Specify reported viability, T/C for the molecule shown: CCc1cc2c(N3CCc4c(cc(Cn5ccnc5)cc4-c4cn(C)nc4C(F)(F)F)C3=O)ccnc2c(OC)n1 + Cc1cccc(N(C)C(=O)C2C(O)CCN2c2nc(C)cc(C(F)(F)F)c2C#N)c1
88.1

Specify reported viability, T/C for the molecule shown: COc1cc(C2c3cc4c(cc3C(OC3OC5COC(C)OC5C(O)C3O)C3COC(=O)C23)OCO4)cc(OC)c1O (stereo unspecified) + COC1C(OC(N)=O)C(O)C(Oc2ccc3c(O)c(NC(=O)c4ccc(O)c(CC=C(C)C)c4)c(=O)oc3c2C)OC1(C)C
71.1

Specify reported viability, T/C for the molecule shown: C=CCn1c(=O)c2cnc(Nc3ccc(N4CCN(C)CC4)cc3)nc2n1-c1cccc(C(C)(C)O)n1 + Nc1ccc(C#CCN(C(=O)Cc2ncc(C(F)(F)F)cc2C(F)(F)F)c2ccc(F)cc2)nn1
89

Specify reported viability, T/C for the molecule shown: Nc1ccn(C2OC(CO)C(O)C2(F)F)c(=O)n1 (stereo unspecified) + Cc1cccc(N(C)C(=O)C2C(O)CCN2c2nc(C)cc(C(F)(F)F)c2C#N)c1
50.3

Specify reported viability, T/C for the molecule shown: C=CC(=O)N1CCN(c2nc(=O)n(-c3c(C)ccnc3C(C)C)c3nc(-c4c(O)cccc4F)c(F)cc23)C(C)C1 (stereo unspecified) + Nc1ccc(C#CCN(C(=O)Cc2ncc(C(F)(F)F)cc2C(F)(F)F)c2ccc(F)cc2)nn1
106

Specify reported viability, T/C for the molecule shown: COc1cccc(OCCCN)c1-c1cc(Nc2cnc(C#N)cn2)n[nH]1 + Nc1ccc(C#CCN(C(=O)Cc2ncc(C(F)(F)F)cc2C(F)(F)F)c2ccc(F)cc2)nn1
65.8

Specify reported viability, T/C for the molecule shown: CNCc1ccc(-c2[nH]c3cc(F)cc4c3c2CCNC4=O)cc1 + Nc1ccc(C#CCN(C(=O)Cc2ncc(C(F)(F)F)cc2C(F)(F)F)c2ccc(F)cc2)nn1
100

Specify reported viability, T/C for the molecule shown: COc1cc(C2c3cc4c(cc3C(OC3OC5COC(C)OC5C(O)C3O)C3COC(=O)C23)OCO4)cc(OC)c1O (stereo unspecified) + Nc1ccc(C#CCN(C(=O)Cc2ncc(C(F)(F)F)cc2C(F)(F)F)c2ccc(F)cc2)nn1
77.9

Specify reported viability, T/C for the molecule shown: O=C(c1cc(Cc2n[nH]c(=O)c3ccccc23)ccc1F)N1CCN(C(=O)C2CC2)CC1 + Cc1cccc(N(C)C(=O)C2C(O)CCN2c2nc(C)cc(C(F)(F)F)c2C#N)c1
93.1

Specify reported viability, T/C for the molecule shown: CC1COCCN1c1cc(C2(S(C)(=N)=O)CC2)nc(-c2ccnc3[nH]ccc23)n1 (stereo unspecified) + Cc1cccc(N(C)C(=O)C2C(O)CCN2c2nc(C)cc(C(F)(F)F)c2C#N)c1
89.5

Specify reported viability, T/C for the molecule shown: O=c1[nH]cc(F)c(=O)[nH]1 + Cc1cccc(N(C)C(=O)C2C(O)CCN2c2nc(C)cc(C(F)(F)F)c2C#N)c1
99.2

Specify reported viability, T/C for the molecule shown: CC1COCCN1c1cc(C2(O)CC3CCC(C2)O3)c2cnn(-c3ccn[nH]3)c2n1 (stereo unspecified) + COC1C(OC(N)=O)C(O)C(Oc2ccc3c(O)c(NC(=O)c4ccc(O)c(CC=C(C)C)c4)c(=O)oc3c2C)OC1(C)C
60.9

Specify reported viability, T/C for the molecule shown: CCc1cc2c(N3CCc4c(cc(Cn5ccnc5)cc4-c4cn(C)nc4C(F)(F)F)C3=O)ccnc2c(OC)n1 + COC1C(OC(N)=O)C(O)C(Oc2ccc3c(O)c(NC(=O)c4ccc(O)c(CC=C(C)C)c4)c(=O)oc3c2C)OC1(C)C
87.4

Specify reported viability, T/C for the molecule shown: COc1cccc2c1C(=O)c1c(O)c3c(c(O)c1C2=O)CC(O)(C(=O)CO)CC3OC1CC(N)C(O)C(C)O1 (stereo unspecified) + COC1C(OC(N)=O)C(O)C(Oc2ccc3c(O)c(NC(=O)c4ccc(O)c(CC=C(C)C)c4)c(=O)oc3c2C)OC1(C)C
38.5

Specify reported viability, T/C for the molecule shown: CC(C)n1c(=O)n(C)c2cnc3cc(F)c(-c4ccc(OCCCN5CCCCC5)nc4)cc3c21 + Cc1cccc(N(C)C(=O)C2C(O)CCN2c2nc(C)cc(C(F)(F)F)c2C#N)c1
112

Specify reported viability, T/C for the molecule shown: O=c1[nH]cc(F)c(=O)[nH]1 + Nc1ccc(C#CCN(C(=O)Cc2ncc(C(F)(F)F)cc2C(F)(F)F)c2ccc(F)cc2)nn1
104

====

- System: 699152-130-R-J1-PDC complex spheroid viability
- protocol description: Anticancer human tumor 699152-130-R-J1-PDC cell line growth inhibition [POLQ];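 further: spheroids exposed to agents for 7 days before viability reading; percent of DMSO vehicle control viability so 100% = vehicle and 0% = no viable signal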
- condition info: second compound 0.316 µM; first compound 1 µM; active compounds read low
parameter: viability, T/C (%)
Please respond with the number in % and leave the unit unwritten.

1. COc1cc(C2c3cc4c(cc3C(OC3OC5COC(C)OC5C(O)C3O)C3COC(=O)C23)OCO4)cc(OC)c1O (stereo not given) + COC1C(OC(N)=O)C(O)C(Oc2ccc3c(O)c(NC(=O)c4ccc(O)c(CC=C(C)C)c4)c(=O)oc3c2C)OC1(C)C    70.8
2. CC1COCCN1c1cc(C2(S(C)(=N)=O)CC2)nc(-c2ccnc3[nH]ccc23)n1 (stereo not given) + Cc1cccc(N(C)C(=O)C2C(O)CCN2c2nc(C)cc(C(F)(F)F)c2C#N)c1    83.5
3. O=C(Nc1ccc(O)c(NS(=O)(=O)c2ccc(F)cc2)c1)c1ccc(-c2ccccc2)cc1 + COC1C(OC(N)=O)C(O)C(Oc2ccc3c(O)c(NC(=O)c4ccc(O)c(CC=C(C)C)c4)c(=O)oc3c2C)OC1(C)C    101
4. C=CC(=O)N1CCN(c2nc(=O)n(-c3c(C)ccnc3C(C)C)c3nc(-c4c(O)cccc4F)c(F)cc23)C(C)C1 (stereo not given) + COC1C(OC(N)=O)C(O)C(Oc2ccc3c(O)c(NC(=O)c4ccc(O)c(CC=C(C)C)c4)c(=O)oc3c2C)OC1(C)C    103
5. CC(C)n1c(=O)n(C)c2cnc3cc(F)c(-c4ccc(OCCCN5CCCCC5)nc4)cc3c21 + Nc1ccc(C#CCN(C(=O)Cc2ncc(C(F)(F)F)cc2C(F)(F)F)c2ccc(F)cc2)nn1    116

Specify reported viability, T/C for the compound shown: O=c1[nH]cc(F)c(=O)[nH]1 + Cc1cccc(N(C)C(=O)C2C(O)CCN2c2nc(C)cc(C(F)(F)F)c2C#N)c1
107

Specify reported viability, T/C for the compound shown: C=CCn1c(=O)c2cnc(Nc3ccc(N4CCN(C)CC4)cc3)nc2n1-c1cccc(C(C)(C)O)n1 + COC1C(OC(N)=O)C(O)C(Oc2ccc3c(O)c(NC(=O)c4ccc(O)c(CC=C(C)C)c4)c(=O)oc3c2C)OC1(C)C
70.7
